# activity coefficient listing for each entry below
- assayNotes: activity coefficient (dimensionless); of the first substance listed, at infinite dilution; xn = mol fraction of the nth substance listed
- conditionNotes: 333.2 K; 101 kPa; Liquid; Chromatography; x1 = 0

- molecule: "CC(C)O [propan-2-ol] + O=CN1CCOCC1"
  activity coefficient: 1.46
- molecule: "C1CCCCCC1 [cycloheptane] + CN1CCCC1=O"
  activity coefficient: 7.51
- molecule: "C=CCCCCCC [oct-1-ene] + O=CN1CCOCC1"
  activity coefficient: 20.5
- molecule: "CC(C)O [propan-2-ol] + CN1CCCC1=O"
  activity coefficient: 0.627
- molecule: "C1CCCCC1 [cyclohexane] + O=CN1CCOCC1"
  activity coefficient: 13.8
- molecule: "CCc1ccccc1 [ethylbenzene] + O=CN1CCOCC1"
  activity coefficient: 3.46
- molecule: "CCCCCC [hexane] + CN1CCCC1=O"
  activity coefficient: 9.51
- molecule: "C=CCCCCC [1-heptene] + O=CN1CCOCC1"
  activity coefficient: 16
- molecule: "C=CCCC [1-pentene] + O=CN1CCOCC1"
  activity coefficient: 9.97
- molecule: "Cc1ccccc1 [toluene] + CN1CCCC1=O"
  activity coefficient: 1.39
- molecule: "CCCO [propan-1-ol] + O=CN1CCOCC1"
  activity coefficient: 1.25
- molecule: "CCCCCCC [heptane] + O=CN1CCOCC1"
  activity coefficient: 31.3

Values were extracted from the NIST ThermoML archive (doi:10.1016/j.jct.2013.02.006).
